# testedSystem: T1, recombinant human TIGIT (Sino Biological) (human, UniProt Q495A1 22-138)
# T1 construct: Bought protein; NP_776160.2; also called human TIGIT antigen; hTIGIT
# T1 sequence: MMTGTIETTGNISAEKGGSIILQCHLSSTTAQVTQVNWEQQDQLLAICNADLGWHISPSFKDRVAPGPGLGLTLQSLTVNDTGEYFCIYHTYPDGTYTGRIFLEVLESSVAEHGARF
# assayMethodText: SPR (Biacore T200), single cycle kinetics, IgG from supernatant captured on anti-human chip, TIGIT as analyte, 1:1 fit;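 note: measured at 25 °C in HBS-P+ with 1% BSA, four ascending TIGIT concentrations, 210 s association per step, one final 900 s dissociation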
Collected kon values appear next to each entry.
The reply should be a number in M⁻¹ s⁻¹, with the unit left off.

Illustrative cases are given below, each with its answer.
[[record]]
binder = "7A6 VH3/Vκ2 humanized antibody (human IgG1, kappa) (antibody, V domains shown, Tested as IgG in supernatant of transiently transfected HEK293 EBNA cells) VH: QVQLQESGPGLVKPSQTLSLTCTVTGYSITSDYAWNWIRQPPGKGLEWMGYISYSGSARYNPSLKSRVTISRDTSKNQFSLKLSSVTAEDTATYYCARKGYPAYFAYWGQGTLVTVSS VL: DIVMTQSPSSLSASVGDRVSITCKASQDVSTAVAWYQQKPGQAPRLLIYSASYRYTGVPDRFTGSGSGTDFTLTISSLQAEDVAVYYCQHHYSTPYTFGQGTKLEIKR"
recordedmetric = "kon"
valueunit = "M⁻¹ s⁻¹"
reading = "1.8e+06"

[[record]]
binder = "7A6 VH1/Vκ4 humanized antibody (human IgG1, kappa) (antibody, V domains shown, Tested as IgG in supernatant of transiently transfected HEK293 EBNA cells) VH: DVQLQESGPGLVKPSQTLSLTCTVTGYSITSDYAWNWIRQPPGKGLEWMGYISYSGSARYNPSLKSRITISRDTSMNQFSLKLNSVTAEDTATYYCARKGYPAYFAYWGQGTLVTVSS VL: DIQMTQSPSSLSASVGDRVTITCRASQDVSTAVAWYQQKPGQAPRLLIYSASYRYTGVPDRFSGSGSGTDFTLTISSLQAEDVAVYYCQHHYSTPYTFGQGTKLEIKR"
recordedmetric = "kon"
valueunit = "M⁻¹ s⁻¹"
reading = "1.91e+06"

[[record]]
binder = "7A6 VH5/Vκ1 humanized antibody (human IgG1, kappa) (antibody, V domains shown, Tested as IgG in supernatant of transiently transfected HEK293 EBNA cells) VH: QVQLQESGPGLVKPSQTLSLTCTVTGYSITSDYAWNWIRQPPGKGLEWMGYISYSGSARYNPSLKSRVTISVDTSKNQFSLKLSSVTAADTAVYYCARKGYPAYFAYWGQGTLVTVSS VL: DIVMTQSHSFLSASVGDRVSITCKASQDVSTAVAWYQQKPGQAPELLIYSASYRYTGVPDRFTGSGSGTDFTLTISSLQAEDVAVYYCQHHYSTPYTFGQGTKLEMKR"
recordedmetric = "kon"
valueunit = "M⁻¹ s⁻¹"
reading = "1.45e+06"


--- query ---
Problem: Can you look up the measured kon of 7A6 VH2/Vκ4 humanized antibody (human IgG1, kappa) (antibody, V domains shown, Tested as IgG in supernatant of transiently transfected HEK293 EBNA cells) VH: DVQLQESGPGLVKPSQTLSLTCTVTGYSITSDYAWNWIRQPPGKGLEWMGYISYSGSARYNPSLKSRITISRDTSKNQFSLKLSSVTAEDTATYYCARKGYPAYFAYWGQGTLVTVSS VL: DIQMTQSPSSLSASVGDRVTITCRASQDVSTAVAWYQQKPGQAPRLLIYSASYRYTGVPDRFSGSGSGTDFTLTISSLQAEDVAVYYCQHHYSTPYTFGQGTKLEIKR for me?
Solution: 1.75e+06
